# condition.notes: in n-butyl acetate, 288.15 K
measurement.label: solubility (mole fraction)
Give bare numbers.

Ask: GET /values?readout=solubility (mole fraction)&item= Cc1nc2n(c(=O)c1CCN1CCC(c3noc4cc(F)ccc34)CC1)CCCC2
Result: 0.00159

###

# condition.notes: in n-butanol, 278.15 K
measurement.label: solubility (mole fraction)
Answers are plain numbers.

Ask: Requested field: solubility (mole fraction). Item: Cc1nc2n(c(=O)c1CCN1CCC(c3noc4cc(F)ccc34)CC1)CCCC2
Result: 0.00144

###

# condition.notes: in isopropanol, 313.15 K
measurement.label: solubility (mole fraction)
One number for each entry.

Ask: Using the record for Cc1nc2n(c(=O)c1CCN1CCC(c3noc4cc(F)ccc34)CC1)CCCC2 , report its solubility (mole fraction).
Result: 0.00271

###

# condition.notes: in isobutyl acetate, 313.15 K
measurement.label: solubility (mole fraction)

Ask: What solubility (mole fraction) value was documented for this molecule, Cc1nc2n(c(=O)c1CCN1CCC(c3noc4cc(F)ccc34)CC1)CCCC2 ?
Result: 0.0033

###

# condition.notes: in isopropyl acetate, 283.15 K
measurement.label: solubility (mole fraction)
Numbers only.

Ask: Quick one: solubility (mole fraction) of Cc1nc2n(c(=O)c1CCN1CCC(c3noc4cc(F)ccc34)CC1)CCCC2 ?
Result: 0.000884

###

# condition.notes: in acetone, 283.15 K
measurement.label: solubility (mole fraction)

Ask: For Cc1nc2n(c(=O)c1CCN1CCC(c3noc4cc(F)ccc34)CC1)CCCC2 , what is its reported solubility (mole fraction)?
Result: 0.00111

###

# condition.notes: in sec-butanol, 293.15 K
measurement.label: solubility (mole fraction)
Numbers only.

Ask: Would you mind telling me what solubility (mole fraction) value was observed for Cc1nc2n(c(=O)c1CCN1CCC(c3noc4cc(F)ccc34)CC1)CCCC2 ?
Result: 0.00361

###

# condition.notes: in isopropyl acetate, 288.15 K
measurement.label: solubility (mole fraction)
Give bare numbers.

Ask: # get_value(readout='solubility (mole fraction)', item= Cc1nc2n(c(=O)c1CCN1CCC(c3noc4cc(F)ccc34)CC1)CCCC2 )
Result: 0.00102

###

# condition.notes: in ethanol, 293.15 K
measurement.label: solubility (mole fraction)
Give bare numbers.

Ask: Requested read-out: solubility (mole fraction). Entry: Cc1nc2n(c(=O)c1CCN1CCC(c3noc4cc(F)ccc34)CC1)CCCC2
Result: 0.00156

###

# condition.notes: in ethanol, 278.15 K
measurement.label: solubility (mole fraction)
Answers are plain numbers.

Ask: So what does the record say about solubility (mole fraction) for Cc1nc2n(c(=O)c1CCN1CCC(c3noc4cc(F)ccc34)CC1)CCCC2 ?
Result: 0.000876

###

# condition.notes: in n-butanol, 298.15 K
measurement.label: solubility (mole fraction)
Answers are plain numbers.

Ask: Which measured solubility (mole fraction) value corresponds to Cc1nc2n(c(=O)c1CCN1CCC(c3noc4cc(F)ccc34)CC1)CCCC2 ?
Result: 0.00368

###

# condition.notes: in isopropanol, 308.15 K
measurement.label: solubility (mole fraction)
One number for each entry.

Ask: Could you tell me which solubility (mole fraction) is on file for Cc1nc2n(c(=O)c1CCN1CCC(c3noc4cc(F)ccc34)CC1)CCCC2 ?
Result: 0.00193

###

# condition.notes: in n-propanol, 298.15 K
measurement.label: solubility (mole fraction)

Ask: If you can, please state the reported solubility (mole fraction) value of Cc1nc2n(c(=O)c1CCN1CCC(c3noc4cc(F)ccc34)CC1)CCCC2 .
Result: 0.0031

###

# condition.notes: in acetone, 298.15 K
measurement.label: solubility (mole fraction)
Give bare numbers.

Ask: # input molecule: Cc1nc2n(c(=O)c1CCN1CCC(c3noc4cc(F)ccc34)CC1)CCCC2 ; wanted: its solubility (mole fraction)
Result: 0.00208

###

# condition.notes: in isopropyl acetate, 308.15 K
measurement.label: solubility (mole fraction)
Give bare numbers.

Ask: Look at this molecule and give its reported solubility (mole fraction). Cc1nc2n(c(=O)c1CCN1CCC(c3noc4cc(F)ccc34)CC1)CCCC2
Result: 0.00225

###

# condition.notes: in methyl acetate, 313.15 K
measurement.label: solubility (mole fraction)
One number for each entry.

Ask: Please give the measured solubility (mole fraction) for this compound: Cc1nc2n(c(=O)c1CCN1CCC(c3noc4cc(F)ccc34)CC1)CCCC2
Result: 0.00489

###

# condition.notes: in isobutyl acetate, 278.15 K
measurement.label: solubility (mole fraction)
Numbers only.

Ask: Query (molecule): Cc1nc2n(c(=O)c1CCN1CCC(c3noc4cc(F)ccc34)CC1)CCCC2 ; field requested: solubility (mole fraction)
Result: 0.000791

###

# condition.notes: in methyl acetate, 293.15 K
measurement.label: solubility (mole fraction)

Ask: Entry Cc1nc2n(c(=O)c1CCN1CCC(c3noc4cc(F)ccc34)CC1)CCCC2 has what solubility (mole fraction)?
Result: 0.00219

###

# condition.notes: in n-butanol, 308.15 K
measurement.label: solubility (mole fraction)
Give bare numbers.

Ask: Using the record for Cc1nc2n(c(=O)c1CCN1CCC(c3noc4cc(F)ccc34)CC1)CCCC2 , report its solubility (mole fraction).
Result: 0.00621

###

# condition.notes: in isobutyl acetate, 308.15 K
measurement.label: solubility (mole fraction)

Ask: Which solubility (mole fraction) value belongs to Cc1nc2n(c(=O)c1CCN1CCC(c3noc4cc(F)ccc34)CC1)CCCC2 ?
Result: 0.00266

###

# condition.notes: in isopropyl acetate, 303.15 K
measurement.label: solubility (mole fraction)
Answers are plain numbers.

Ask: Give the measured solubility (mole fraction) of Cc1nc2n(c(=O)c1CCN1CCC(c3noc4cc(F)ccc34)CC1)CCCC2 .
Result: 0.00186

###

# condition.notes: in sec-butanol, 308.15 K
measurement.label: solubility (mole fraction)
Numbers only.

Ask: Returns the measured solubility (mole fraction) for the input compound. Input: Cc1nc2n(c(=O)c1CCN1CCC(c3noc4cc(F)ccc34)CC1)CCCC2
Result: 0.00769

###

# condition.notes: in n-propanol, 283.15 K
measurement.label: solubility (mole fraction)

Ask: For the compound Cc1nc2n(c(=O)c1CCN1CCC(c3noc4cc(F)ccc34)CC1)CCCC2 , what solubility (mole fraction) is on record?
Result: 0.00149

###

# condition.notes: in sec-butanol, 288.15 K
measurement.label: solubility (mole fraction)
Give bare numbers.

Ask: I would be grateful if you could share the reported solubility (mole fraction) for Cc1nc2n(c(=O)c1CCN1CCC(c3noc4cc(F)ccc34)CC1)CCCC2 .
Result: 0.00286

###

# condition.notes: in sec-butanol, 283.15 K
measurement.label: solubility (mole fraction)
Numbers only.

Ask: Consider the compound shown here: Cc1nc2n(c(=O)c1CCN1CCC(c3noc4cc(F)ccc34)CC1)CCCC2 What is its recorded solubility (mole fraction)?
Result: 0.00244

###

# condition.notes: in isopropanol, 303.15 K
measurement.label: solubility (mole fraction)
Give bare numbers.

Ask: Can you share its solubility (mole fraction)? I mean this molecule: Cc1nc2n(c(=O)c1CCN1CCC(c3noc4cc(F)ccc34)CC1)CCCC2
Result: 0.00134

###

# condition.notes: in ethanol, 298.15 K
measurement.label: solubility (mole fraction)
Give bare numbers.

Ask: Consider the compound shown here: Cc1nc2n(c(=O)c1CCN1CCC(c3noc4cc(F)ccc34)CC1)CCCC2 What is its recorded solubility (mole fraction)?
Result: 0.00209

###

# condition.notes: in methanol, 278.15 K
measurement.label: solubility (mole fraction)
Give bare numbers.

Ask: // returns reported solubility (mole fraction) for input Cc1nc2n(c(=O)c1CCN1CCC(c3noc4cc(F)ccc34)CC1)CCCC2
Result: 0.00204

###

# condition.notes: in isobutyl acetate, 283.15 K
measurement.label: solubility (mole fraction)
Numbers only.

Ask: I would be grateful if you could share the reported solubility (mole fraction) for Cc1nc2n(c(=O)c1CCN1CCC(c3noc4cc(F)ccc34)CC1)CCCC2 .
Result: 0.00106

###

# condition.notes: in n-propanol, 303.15 K
measurement.label: solubility (mole fraction)
One number for each entry.

Ask: // query solubility (mole fraction) value for entry Cc1nc2n(c(=O)c1CCN1CCC(c3noc4cc(F)ccc34)CC1)CCCC2
Result: 0.00409

###

# condition.notes: in ethyl acetate, 303.15 K
measurement.label: solubility (mole fraction)
Numbers only.

Ask: Consider the molecule Cc1nc2n(c(=O)c1CCN1CCC(c3noc4cc(F)ccc34)CC1)CCCC2 and give its measured solubility (mole fraction).
Result: 0.00297

###

# condition.notes: in sec-butanol, 278.15 K
measurement.label: solubility (mole fraction)
Answers are plain numbers.

Ask: Given Cc1nc2n(c(=O)c1CCN1CCC(c3noc4cc(F)ccc34)CC1)CCCC2 , state its recorded solubility (mole fraction).
Result: 0.00187

###

# condition.notes: in acetone, 313.15 K
measurement.label: solubility (mole fraction)
One number for each entry.

Ask: Name the recorded solubility (mole fraction) for Cc1nc2n(c(=O)c1CCN1CCC(c3noc4cc(F)ccc34)CC1)CCCC2 .
Result: 0.0039
